# TARGET SYSTEM: Sodium channel alpha subunits; brain (Types I, II, III) (Homo sapiens, UniProt P35498+Q99250+Q9NY46)
# Sequence (Q99250 whole entry, looked up, other chains not shown): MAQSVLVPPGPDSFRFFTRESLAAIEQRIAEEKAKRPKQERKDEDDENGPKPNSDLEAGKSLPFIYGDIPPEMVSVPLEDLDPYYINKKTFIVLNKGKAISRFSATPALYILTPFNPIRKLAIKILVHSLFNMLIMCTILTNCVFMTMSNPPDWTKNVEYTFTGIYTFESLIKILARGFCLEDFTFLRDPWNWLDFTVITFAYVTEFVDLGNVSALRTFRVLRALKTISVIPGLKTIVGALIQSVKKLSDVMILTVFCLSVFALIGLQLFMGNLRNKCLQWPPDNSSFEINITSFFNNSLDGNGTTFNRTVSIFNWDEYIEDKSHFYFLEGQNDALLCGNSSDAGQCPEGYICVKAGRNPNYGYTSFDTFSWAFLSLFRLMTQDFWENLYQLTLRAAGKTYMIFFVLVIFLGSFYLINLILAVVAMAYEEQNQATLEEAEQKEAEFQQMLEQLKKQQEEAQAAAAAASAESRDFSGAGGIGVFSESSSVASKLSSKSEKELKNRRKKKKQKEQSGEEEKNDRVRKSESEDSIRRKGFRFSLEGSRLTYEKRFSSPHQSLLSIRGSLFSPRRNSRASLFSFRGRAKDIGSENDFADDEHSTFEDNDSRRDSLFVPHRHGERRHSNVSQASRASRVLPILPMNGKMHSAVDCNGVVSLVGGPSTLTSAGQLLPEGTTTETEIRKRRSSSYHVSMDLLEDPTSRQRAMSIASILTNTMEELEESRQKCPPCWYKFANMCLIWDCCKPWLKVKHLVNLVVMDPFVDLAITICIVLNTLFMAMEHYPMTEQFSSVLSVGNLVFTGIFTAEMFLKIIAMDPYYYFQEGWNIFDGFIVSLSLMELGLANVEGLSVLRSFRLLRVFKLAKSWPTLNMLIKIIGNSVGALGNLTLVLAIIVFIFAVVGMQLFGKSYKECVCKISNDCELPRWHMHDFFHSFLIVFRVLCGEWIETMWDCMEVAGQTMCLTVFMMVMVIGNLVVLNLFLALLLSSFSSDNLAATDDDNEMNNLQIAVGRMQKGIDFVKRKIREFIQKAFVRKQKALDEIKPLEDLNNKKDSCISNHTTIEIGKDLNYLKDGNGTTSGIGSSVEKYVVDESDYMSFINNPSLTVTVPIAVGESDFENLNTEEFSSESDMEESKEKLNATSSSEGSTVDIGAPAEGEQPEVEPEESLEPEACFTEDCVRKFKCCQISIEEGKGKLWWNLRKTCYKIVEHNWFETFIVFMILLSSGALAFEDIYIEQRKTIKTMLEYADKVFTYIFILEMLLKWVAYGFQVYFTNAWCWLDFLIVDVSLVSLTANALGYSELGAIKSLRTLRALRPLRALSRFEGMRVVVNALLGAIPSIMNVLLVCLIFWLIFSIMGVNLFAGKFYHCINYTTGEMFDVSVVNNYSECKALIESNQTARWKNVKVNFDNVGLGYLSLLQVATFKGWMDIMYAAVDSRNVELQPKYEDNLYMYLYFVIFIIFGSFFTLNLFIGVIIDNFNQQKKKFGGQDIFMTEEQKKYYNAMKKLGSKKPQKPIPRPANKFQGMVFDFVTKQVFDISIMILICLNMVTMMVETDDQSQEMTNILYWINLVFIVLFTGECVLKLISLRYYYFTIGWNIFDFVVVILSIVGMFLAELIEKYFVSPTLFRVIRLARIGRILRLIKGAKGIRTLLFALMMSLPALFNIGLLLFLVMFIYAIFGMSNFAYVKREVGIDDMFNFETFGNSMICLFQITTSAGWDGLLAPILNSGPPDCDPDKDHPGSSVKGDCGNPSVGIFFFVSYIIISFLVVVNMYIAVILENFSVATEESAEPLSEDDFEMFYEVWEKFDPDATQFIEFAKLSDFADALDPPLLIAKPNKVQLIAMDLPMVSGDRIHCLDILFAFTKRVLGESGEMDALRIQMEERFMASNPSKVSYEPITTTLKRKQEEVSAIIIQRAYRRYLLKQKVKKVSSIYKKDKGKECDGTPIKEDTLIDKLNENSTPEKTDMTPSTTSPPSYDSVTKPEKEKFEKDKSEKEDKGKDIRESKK
# Sequence (Q9NY46 whole entry, looked up, other chains not shown): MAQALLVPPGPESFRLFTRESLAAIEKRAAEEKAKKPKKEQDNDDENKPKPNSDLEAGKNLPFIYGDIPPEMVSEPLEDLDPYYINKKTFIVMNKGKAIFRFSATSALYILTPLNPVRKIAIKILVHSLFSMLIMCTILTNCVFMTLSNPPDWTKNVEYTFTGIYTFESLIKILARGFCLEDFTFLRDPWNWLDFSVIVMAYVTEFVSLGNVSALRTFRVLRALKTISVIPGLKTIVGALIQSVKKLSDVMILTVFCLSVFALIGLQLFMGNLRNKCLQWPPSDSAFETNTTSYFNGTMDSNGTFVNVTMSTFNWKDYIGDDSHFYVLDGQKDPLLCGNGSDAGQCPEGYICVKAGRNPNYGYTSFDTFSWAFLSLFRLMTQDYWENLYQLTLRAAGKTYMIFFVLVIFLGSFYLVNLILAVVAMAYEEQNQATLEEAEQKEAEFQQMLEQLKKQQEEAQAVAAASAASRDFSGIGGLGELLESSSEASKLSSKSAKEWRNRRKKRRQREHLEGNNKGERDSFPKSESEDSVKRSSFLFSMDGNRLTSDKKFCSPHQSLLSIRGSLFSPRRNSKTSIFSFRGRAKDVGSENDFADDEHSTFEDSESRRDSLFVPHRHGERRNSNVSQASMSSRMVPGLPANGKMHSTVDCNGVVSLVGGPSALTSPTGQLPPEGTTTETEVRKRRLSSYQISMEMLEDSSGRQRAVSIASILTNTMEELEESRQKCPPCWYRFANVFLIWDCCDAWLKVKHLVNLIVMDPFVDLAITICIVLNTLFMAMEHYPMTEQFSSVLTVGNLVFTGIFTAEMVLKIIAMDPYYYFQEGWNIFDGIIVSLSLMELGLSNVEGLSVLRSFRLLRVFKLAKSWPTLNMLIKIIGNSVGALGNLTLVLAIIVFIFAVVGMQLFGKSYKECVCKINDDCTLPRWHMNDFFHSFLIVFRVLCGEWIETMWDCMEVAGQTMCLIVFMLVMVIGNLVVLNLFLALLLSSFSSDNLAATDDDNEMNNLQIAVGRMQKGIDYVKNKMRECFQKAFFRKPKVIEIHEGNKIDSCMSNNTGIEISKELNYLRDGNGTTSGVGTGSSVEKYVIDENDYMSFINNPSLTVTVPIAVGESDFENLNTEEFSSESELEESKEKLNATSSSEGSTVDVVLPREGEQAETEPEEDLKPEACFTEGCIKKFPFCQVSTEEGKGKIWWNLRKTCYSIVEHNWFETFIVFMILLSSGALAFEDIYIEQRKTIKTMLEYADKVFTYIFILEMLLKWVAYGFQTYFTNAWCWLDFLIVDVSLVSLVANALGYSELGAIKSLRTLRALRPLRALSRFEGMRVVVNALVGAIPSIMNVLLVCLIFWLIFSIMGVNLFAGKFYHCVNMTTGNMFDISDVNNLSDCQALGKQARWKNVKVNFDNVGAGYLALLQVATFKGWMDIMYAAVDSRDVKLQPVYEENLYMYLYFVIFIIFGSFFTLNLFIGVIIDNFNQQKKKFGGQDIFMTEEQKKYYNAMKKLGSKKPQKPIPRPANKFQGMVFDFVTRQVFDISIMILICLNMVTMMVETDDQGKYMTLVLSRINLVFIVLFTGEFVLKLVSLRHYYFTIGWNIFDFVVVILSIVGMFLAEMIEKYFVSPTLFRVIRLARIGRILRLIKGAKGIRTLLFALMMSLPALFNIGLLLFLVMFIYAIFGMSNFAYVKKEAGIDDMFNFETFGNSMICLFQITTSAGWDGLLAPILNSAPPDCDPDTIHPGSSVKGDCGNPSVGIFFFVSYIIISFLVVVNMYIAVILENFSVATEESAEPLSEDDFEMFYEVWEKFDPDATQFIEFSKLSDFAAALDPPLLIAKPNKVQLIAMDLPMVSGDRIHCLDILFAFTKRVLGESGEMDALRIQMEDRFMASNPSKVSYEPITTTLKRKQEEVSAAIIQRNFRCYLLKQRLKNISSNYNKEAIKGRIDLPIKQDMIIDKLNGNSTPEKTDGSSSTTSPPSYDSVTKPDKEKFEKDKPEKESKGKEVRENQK
# TEST CONTEXT: Cavia porcellus; Cerebral cortex; at 10 µM
We use 10% as the dividing line for inhibition: on or above the line is 1, below is 0.

These solved cases illustrate the format of a correct answer.
> print(dat)
                                  molecule  assigned.category
1          COc1ccc(C2C(=O)c3ccccc3C2=O)cc1                  0
2           COc1ccc(CN(CCN(C)C)c2nccs2)cc1                  1
3  CC[N+](CC)(CC)CC(=O)Nc1c(C)cccc1C.[Cl-]                  1

Say whether COc1ccc2c(c1)c(CC(=O)O)c(C)n2C(=O)c1ccc(Cl)cc1 shows inhibition of 10% or more.
0

Say whether Cc1cccc(C)c1NC(=O)C1CCCCN1C (stereo not drawn) shows inhibition of 10% or more.
0

* * *

# TARGET SYSTEM: Sodium channel alpha subunits; brain (Types I, II, III) (Homo sapiens, UniProt P35498+Q99250+Q9NY46)
# METHOD SUMMARY: Inhibition of binding of Batrachotoxinin [3H]BTX-B to high affinity sites on voltage dependent sodium channels in a vesicular preparation from guinea pig cerebral cortex
# Type: tissue-based, Cavia porcellus
MEASURED PARAMETER: IC50 (µM)
Reply numerically in µM, unit not repeated.

COMPOUND	IC50 / µM
CN(C(=O)CN(CCO)CC(=O)N(C)C(C)(C)Cc1ccccc1)C(C)(C)Cc1ccccc1	2.3
COC(=O)[C@@H]1[C@H]2C[C@H]3c4[nH]c5ccccc5c4CCN3C[C@@H]2CC[C@@H]1O	33

What value of measured IC50 is listed for O=C1C[C@@H]2OCC=C3CN4CC[C@]56c7ccccc7N1[C@H]5[C@H]2[C@H]3C[C@H]46 ?
21

What value of measured IC50 is listed for C=C(C)[C@@H]1[C@H]2OC(=O)[C@@H]1[C@]1(O)C[C@H]3OC34C(=O)O[C@H]2[C@@]41C.CC(C)(O)[C@@H]1[C@H]2OC(=O)[C@@H]1[C@]1(O)C[C@H]3OC34C(=O)O[C@H]2[C@@]41C (stereo partly drawn) ?
700

What value of measured IC50 is listed for CN1CCN(CCCN2c3ccccc3Sc3ccc(C(F)(F)F)cc32)CC1 ?
5

What value of measured IC50 is listed for CN(C)CCC(c1ccccc1)c1ccccn1 (stereo not drawn) ?
33

What value of measured IC50 is listed for CCOC(=O)C1=C(C)NC(C)=C(C(=O)OC)C1c1cccc(Cl)c1Cl (stereo not drawn) ?
37

* * *

# TARGET SYSTEM: Sodium channel alpha subunits; brain (Types I, II, III) (Homo sapiens, UniProt P35498+Q99250+Q9NY46)
# TEST CONTEXT: Cavia porcellus; Cerebral cortex; at 10 µM
MEASURED PARAMETER: inhibition (%)
Reply numerically in %, unit not repeated.

What value of measured inhibition is listed for CC1CCCC[N+]1(C)CCCOC(=O)c1ccccc1.[I-] (stereo unspecified) ?
9.6

* * *

# TARGET SYSTEM: Sodium channel alpha subunits; brain (Types I, II, III) (Homo sapiens, UniProt P35498+Q99250+Q9NY46)
# TEST CONTEXT: Cavia porcellus; Cerebral cortex; at 10 µM
We use 60% as the dividing line for inhibition: on or above the line is MET, below is NOT MET.

These solved cases illustrate the format of a correct answer.
> print(dat)
                                   compound  assigned.category
1  CCCCOc1cc(CC2CNC(=O)N2)ccc1OC (stereo not given)            NOT MET
2                Cn1c(=O)c2c(ncn2C)n(C)c1=O            NOT MET
3  CCN(CC)CCCC(C)Nc1c2ccc(Cl)cc2nc2ccc(OC)cc12 (stereo not given)                MET
4  CSc1ccc2c(c1)N(CCC1CCCCN1C)c1ccccc1S2 (stereo not given)                MET
5        COc1cccc(OC)c1OCCNCC1=COc2ccccc2O1                MET

Say whether C[N+](C)(CC(=O)Nc1ccccc1)CC(=O)Nc1ccccc1.[Cl-] [CARCAINIUM CHLORIDE] shows inhibition of 60% or more.
MET

Say whether CN1CC[C@]23CCCC[C@H]2[C@H]1Cc1ccc(O)cc13 shows inhibition of 60% or more.
NOT MET

Say whether CCCCN1CCCCC1C(=O)Nc1c(C)cccc1C (stereo not given) shows inhibition of 60% or more.
MET

Say whether CCCNC(C)C(=O)Nc1c(C)csc1C(=O)OC (stereo not given) shows inhibition of 60% or more.
NOT MET

Say whether CN1CCN2c3ccccc3Cc3ccccc3C2C1 (stereo not given) shows inhibition of 60% or more.
NOT MET

* * *

# TARGET SYSTEM: Sodium channel alpha subunits; brain (Types I, II, III) (Homo sapiens, UniProt P35498+Q99250+Q9NY46)
# TEST CONTEXT: Cavia porcellus; Cerebral cortex; at 10 µM
Below, each entry is listed alongside its reported inhibition.
Reply numerically in %, unit not repeated.

Please review the entries below; each comes with its answer.
> print(dat)
                                   compound  measured.parameter  number
1  OCCOCCN1CCN(C(c2ccccc2)c2ccc(Cl)cc2)CC1 (stereo not given) [HYDROXYZINE]          inhibition    73.9
2  CC(C)CCC[C@@H](C)[C@H]1CC[C@H]2[C@@H]3CC=C4C[C@@H](O)CC[C@]4(C)[C@H]3CC[C@]12C          inhibition     3.3

What value of measured inhibition is listed for CN(C)CCC=C1c2ccccc2COc2ccccc21 [DOXEPIN] ?
67.7

What value of measured inhibition is listed for NCC(CC(=O)O)c1ccc(Cl)cc1 (stereo not given) ?
6.2

What value of measured inhibition is listed for CC(C)NC[C@H](O)COc1cccc2ccccc12 ?
42.6

* * *

# TARGET SYSTEM: Sodium channel alpha subunits; brain (Types I, II, III) (Homo sapiens, UniProt P35498+Q99250+Q9NY46)
# TEST CONTEXT: Cavia porcellus; Cerebral cortex; at 10 µM
MEASURED PARAMETER: inhibition (%)
Reply numerically in %, unit not repeated.

Please review the entries below; each comes with its answer.
> print(dat)
                                   molecule  number
1  C[C@]12CC[C@@H]3c4ccc(O)cc4CC[C@H]3[C@@H]1CC[C@@H]2O    17.8
2              CN(C)CCCN1c2ccccc2Sc2ccccc21    65.3
3    CCN(CC)CCCCCCCCOC(=O)c1cc(C)c(C)c(C)c1     3.4

We now examine a further molecule.
What value of measured inhibition is listed for CCCCNc1ccc(C(=O)OCCN(C)C)cc1 ?
72

* * *

# TARGET SYSTEM: Sodium channel alpha subunits; brain (Types I, II, III) (Homo sapiens, UniProt P35498+Q99250+Q9NY46)
# TEST CONTEXT: Cavia porcellus; Cerebral cortex; at 10 µM
We use 20% as the dividing line for inhibition: on or above the line is met, below is not met.

Say whether CCCC(C)C1(CC)C(=O)NC(=O)NC1=O (configuration not stated) shows inhibition of 20% or more.
not met

Say whether COc1ccc(C2CNC(=O)C2)cc1OC1CCCC1 (configuration not stated) shows inhibition of 20% or more.
not met

Say whether CCOc1ccc(C(=O)OCCN(CC)CC)cc1 shows inhibition of 20% or more.
met

Say whether CC/C(=C(/CC)c1ccc(O)cc1)c1ccc(O)cc1 shows inhibition of 20% or more.
met

Say whether CC(CN1c2ccccc2Sc2ccccc21)N(C)C (configuration not stated) shows inhibition of 20% or more.
met

Say whether CN(C)C/C=C(/c1ccc(Br)cc1)c1cccnc1 shows inhibition of 20% or more.
met

Say whether CN1CCC(=C2c3ccccc3C=Cc3ccccc32)CC1 shows inhibition of 20% or more.
met

Say whether CCC1(c2ccccc2)C(=O)NC(=O)NC1=O shows inhibition of 20% or more.
not met

* * *

# TARGET SYSTEM: Sodium channel alpha subunits; brain (Types I, II, III) (Homo sapiens, UniProt P35498+Q99250+Q9NY46)
# METHOD SUMMARY: Inhibition of binding of Batrachotoxinin [3H]BTX-B to high affinity sites on voltage dependent sodium channels in a vesicular preparation from guinea pig cerebral cortex
# Assay type: tissue-based, Cavia porcellus
Below, each entry is listed alongside its reported IC50.
Reply numerically in µM, unit not repeated.

Please review the entries below; each comes with its answer.
> print(dat)
                                   compound  number
1  C[N+](C)(CC(=O)Nc1ccccc1)CC(=O)Nc1ccccc1.[Cl-] [CARCAINIUM CHLORIDE]     3.9
2  CC(C)COCC(CN(Cc1ccccc1)c1ccccc1)N1CCCC1 (centres undefined)    0.84
3  COc1cc(C(=O)OCCCN2CCCN(CCCOC(=O)c3cc(OC)c(OC)c(OC)c3)CC2)cc(OC)c1OC     0.6
4        Cl.NCCCCCCNS(=O)(=O)c1cccc2ccccc12      22
5  COC(=O)[C@H]1[C@@H](OC(=O)c2ccccc2)C[C@@H]2CC[C@H]1N2C      49
6   CCCC(C(=O)OCCN(CC)CC)(c1ccccc1)c1ccccc1     4.2

What value of measured IC50 is listed for COc1ccc(OC)c(C(O)C(C)NC(C)(C)C)c1 (centres undefined) ?
27

Numbers sourced from ChEMBL document CHEMBL1122963.
